Measured On: T1, human IL-8 (human, UniProt P10145 23-99, limits assumed)
T1 construct: also called hIL-8; hIL8
Assay Info: SPR Biacore T200, Protein A/G capture, pH 7.4, 40C;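 note: antibodies captured via Protein A/G, which was amine-coupled to a CM4 sensor chip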
Mark class 1 only for Kd values smaller than 0.1 nM; exact matches and larger values are class 0.

[
  {
    "Binder": "H1046/L0442 (antibody, human IgG1, kappa, name in Kabat numbering, V domains shown, L442 = L395 + S31E) VH: QVQLVESGGGLVQPGGSLRLSCAASGFTFSEYYLSWVRQAPGKGLEWVGLIRNKDNYHHPEYSASVKGRFTISRDDSKNSLYLTMSDLKTEDTAVYYCARENHRYDVELAYWGQGTLVTVSS VL: DIQMTQSPSSLSASVGDRVTITCRASEIIYEYLAWYQQKPGKAPKLLIYKAKTHADGVPSRFSGSGSGTDFTFTISSLQPEDIATYYCKHHFGFPRTFGQGTKVEIKR",
    "Group": "class 0"
  },
  {
    "Binder": "H1037/L0395 (antibody, human IgG1, kappa, name in Kabat numbering, V domains shown) VH: QVQLVESGGGLVQPGGSLRLSCAASGFTFDKYYLSWVRQAPGKGLEWVGLIRNKDNYHHPEYSASVKGRFTISRDDSKNSLYLTMSDLKTEDTAVYYCARENHRYDVELAYWGQGTLVTVSS VL: DIQMTQSPSSLSASVGDRVTITCRASEIIYSYLAWYQQKPGKAPKLLIYKAKTHADGVPSRFSGSGSGTDFTFTISSLQPEDIATYYCKHHFGFPRTFGQGTKVEIKR",
    "Group": "class 1"
  },
  {
    "Binder": "H1050/L0395 (antibody, human IgG1, kappa, name in Kabat numbering, V domains shown) VH: QVQLVESGGGLVQPGGSLRLSCAASGFTFSEYYLSWVRQAPGKGLEWVGLIRNKDNYHTPEYSASVKGRFTISRDDSKNSLYLTMSDLKTEDTAVYYCARENHRYDVELAYWGQGTLVTVSS VL: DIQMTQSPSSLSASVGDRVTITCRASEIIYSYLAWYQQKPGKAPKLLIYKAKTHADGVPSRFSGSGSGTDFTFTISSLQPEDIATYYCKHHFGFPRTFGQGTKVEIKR",
    "Group": "class 1"
  },
  {
    "Binder": "H1047/L0395 (antibody, human IgG1, kappa, name in Kabat numbering, V domains shown) VH: QVQLVESGGGLVQPGGSLRLSCAASGFTFDKYYLSWVRQAPGKGLEWVGLIRNKDNGYTPEYSASVKGRFTISRDDSKNSLYLTMSDLKTEDTAVYYCARENHRYDVELAYWGQGTLVTVSS VL: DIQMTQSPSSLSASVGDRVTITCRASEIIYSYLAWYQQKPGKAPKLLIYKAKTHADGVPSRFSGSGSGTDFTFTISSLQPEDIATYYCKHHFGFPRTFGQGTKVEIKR",
    "Group": "class 1"
  }
]
